# measurement_target: human activated kallikrein enzyme (Homo sapiens, UniProt P03952)
# Sequence (P03952 391-638 limits assumed): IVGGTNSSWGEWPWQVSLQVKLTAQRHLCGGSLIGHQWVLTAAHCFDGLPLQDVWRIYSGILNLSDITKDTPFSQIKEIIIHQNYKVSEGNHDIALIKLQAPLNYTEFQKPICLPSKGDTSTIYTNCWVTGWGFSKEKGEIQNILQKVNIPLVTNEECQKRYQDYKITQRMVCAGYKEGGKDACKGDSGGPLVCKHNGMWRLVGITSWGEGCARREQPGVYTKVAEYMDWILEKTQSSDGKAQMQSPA
# Sequence (P03952 20-390 partner limits assumed): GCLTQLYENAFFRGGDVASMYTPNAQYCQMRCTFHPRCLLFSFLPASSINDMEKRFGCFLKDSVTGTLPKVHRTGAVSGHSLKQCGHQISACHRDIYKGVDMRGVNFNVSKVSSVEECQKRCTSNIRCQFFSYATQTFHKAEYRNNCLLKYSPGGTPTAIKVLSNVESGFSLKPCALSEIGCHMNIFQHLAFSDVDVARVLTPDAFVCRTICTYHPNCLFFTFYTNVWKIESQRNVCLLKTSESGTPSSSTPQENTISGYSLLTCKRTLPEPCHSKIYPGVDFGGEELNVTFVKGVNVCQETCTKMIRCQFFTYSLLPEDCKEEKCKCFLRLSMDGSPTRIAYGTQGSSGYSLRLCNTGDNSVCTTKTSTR
# assay_overview: Inhibition of human activated plasma kallikrein, fluorogenic peptide substrate (PFR-AMC), 500 pM enzyme format
# condition_info: 500 pM activated kallikrein, 30 min preincubation, 10 min reaction, room temperature, read-out: Primary Dose Response Assay: Average EC50
Reported EC50 values follow for various molecules

Worked cases, EC50 given:
- O=C(Nc1cc(NCc2nc3ncc(C4CC4)cn3n2)ncn1)[C@H]1C[C@@H]1c1cccc(Cl)c1: 2.5 to 25 nM
- Cc1ccnc([C@H]2C[C@@H]2C(=O)Nc2cc(N(C)Cc3nc4cc(C5CC5)cc(N5CC(=O)N(C)C5=O)c4[nH]3)nc(C)n2)n1: < 2.5 nM
- O=C(Nc1cc(NCc2cn3c(NC4CC4)nccc3n2)ncn1)[C@H]1C[C@@H]1c1cccc(Cl)c1: > 500 nM
- CC(C)(C#N)Cc1cc(C2CC2)cc2cc(CNc3cc(NC(=O)[C@H]4C[C@@H]4c4cccc(Cl)c4)ncn3)nn12: 2.5 to 25 nM
- Cc1ccnc([C@H]2C[C@@H]2C(=O)Nc2cc(N3C[C@@H](O)C[C@@H]3c3ccc(N4CC5CC5C4)nc3)ncn2)n1 (relative stereo): 2.5 to 25 nM

INPUT: What value of EC50 has been recorded for this entry: O=C(Nc1cc(NCc2nc3ccc(C4CC4)nn3n2)ncn1)[C@H]1C[C@@H]1c1cccc(Cl)c1
OUTPUT: > 500 nM

INPUT: # query: EC50 of entry O=C(Nc1cc(NCc2ccc(Cn3ccccc3=O)cc2)cnn1)[C@@H]1C[C@H]1c1cccc(Cl)c1 (single isomer, unassigned)
OUTPUT: < 2.5 nM

INPUT: Which EC50 value is on record for O=C(Nc1cc(NCc2cn3cc(C4CC4)cnc3n2)ncn1)[C@H]1C[C@@H]1c1cc(Cl)ccn1 ?
OUTPUT: < 2.5 nM
